Below: a set of entries, each annotated with reported melting point.

Any idea what melting point was measured for Cc1ccc(C2=C3C(=O)c4ccccc4S(=O)(=O)N3CCCO2)cc1 ?
204 to 206 °C

Any idea what melting point was measured for O=C1C2=C(c3ccccc3)OCCN2S(=O)(=O)c2ccccc21 ?
182 to 183 °C

Any idea what melting point was measured for COc1ccc(C2=C3C(=O)c4ccccc4S(=O)(=O)N3CCCO2)cc1 ?
144 to 145 °C

Any idea what melting point was measured for O=C1C2=C(c3ccc(Cl)cc3)OCCCN2S(=O)(=O)c2ccccc21 ?
168 to 170 °C

Any idea what melting point was measured for O=C1C2=C(c3ccccc3)OCCCN2S(=O)(=O)c2ccccc21 ?
171 to 172 °C

Any idea what melting point was measured for O=C1C2=C(c3ccccc3)OCCCCN2S(=O)(=O)c2ccccc21 ?
198 to 201 °C

* * *

- ASSAY_TARGET: human recombinant COX-2 (Homo sapiens)
- Sequence (P35354 18-604): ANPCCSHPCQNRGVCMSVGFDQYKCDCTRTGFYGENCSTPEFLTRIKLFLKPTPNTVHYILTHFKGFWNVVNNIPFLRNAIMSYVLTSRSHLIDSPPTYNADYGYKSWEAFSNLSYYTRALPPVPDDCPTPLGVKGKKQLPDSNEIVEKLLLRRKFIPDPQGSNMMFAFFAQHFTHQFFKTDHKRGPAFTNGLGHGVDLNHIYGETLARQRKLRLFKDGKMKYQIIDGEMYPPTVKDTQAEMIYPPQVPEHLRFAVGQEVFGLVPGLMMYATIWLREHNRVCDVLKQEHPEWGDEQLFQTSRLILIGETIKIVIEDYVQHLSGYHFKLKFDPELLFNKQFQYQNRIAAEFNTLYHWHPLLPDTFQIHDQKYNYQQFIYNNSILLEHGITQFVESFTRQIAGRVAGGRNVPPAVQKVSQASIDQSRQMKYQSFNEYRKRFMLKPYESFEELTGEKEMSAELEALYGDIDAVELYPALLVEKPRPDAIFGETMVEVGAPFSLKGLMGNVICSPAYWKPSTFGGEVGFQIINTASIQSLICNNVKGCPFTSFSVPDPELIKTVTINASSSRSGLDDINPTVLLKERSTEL
- EXPERIMENTAL_PROTOCOL: COX colorimetric inhibitor screening assay, COX-2
- TEST_PARAMETERS: ratio of IC50 values COX-2/COX-1
We use 0.7 as the dividing line for Ratio: COX-2/COX-1: on or above the line is rule met, below is rule not met.

[[record]]
compound = "O=C1C2=C(c3ccc(Cl)cc3)OCCCN2S(=O)(=O)c2ccccc21"
class_assignment = "rule met"

[[record]]
compound = "Cc1ccc(C(=O)C2=C(O)c3ccccc3S(=O)(=O)N2)cc1"
class_assignment = "rule not met"

[[record]]
compound = "O=C1C2=C(c3ccccc3)OCCN2S(=O)(=O)c2ccccc21"
class_assignment = "rule met"

[[record]]
compound = "Cc1ccc(C2=C3C(=O)c4ccccc4S(=O)(=O)N3CCCO2)cc1"
class_assignment = "rule met"

[[record]]
compound = "O=C1C2=C(c3ccccc3)OCCCCN2S(=O)(=O)c2ccccc21"
class_assignment = "rule not met"

[[record]]
compound = "COc1ccc(C2=C3C(=O)c4ccccc4S(=O)(=O)N3CCCO2)cc1"
class_assignment = "rule not met"

[[record]]
compound = "O=C(C1=C(O)c2ccccc2S(=O)(=O)N1)c1ccccc1"
class_assignment = "rule not met"

[[record]]
compound = "O=C1C2=C(c3ccccc3)OCCCN2S(=O)(=O)c2ccccc21"
class_assignment = "rule met"


Continue with the compound presented below.
Determine whether measured Ratio: COX-2/COX-1 meets or exceeds 0.7 for O=C(C1=C(O)c2ccccc2S(=O)(=O)N1)c1ccc(Cl)cc1
rule not met

Each recorded value in this set is attributed to paper PMC8346139.
